System: Calu-3
Assay: cell viability relative to DMSO; higher = less toxic
Conditions: 72 h; 100 nM

- compound: "CC1(C)C(=O)N(c2ccc(C#N)c(C(F)(F)F)c2)C(=O)N1CCCCO"
  unitAbbreviation: "%"
  cell viability: 96
- compound: "Cc1cccc(C)c1NC1=NCCCS1"
  unitAbbreviation: "%"
  cell viability: 92.1
- compound: "OCCN1C[C@H](O)[C@@H](O)[C@H](O)[C@H]1CO"
  unitAbbreviation: "%"
  cell viability: 95.1
- compound: "CC[C@]12CCCN3CCc4c(n(c5ccccc45)C(=O)C1)[C@@H]32"
  unitAbbreviation: "%"
  cell viability: 93.7
- compound: "O=C(O)C1=CCCN(CCOC(c2ccc(C(F)(F)F)cc2)c2ccc(C(F)(F)F)cc2)C1"
  unitAbbreviation: "%"
  cell viability: 102
- compound: "C=CC(=O)Nc1ccc2ncnc(Nc3cccc(Br)c3)c2c1"
  unitAbbreviation: "%"
  cell viability: 46.5
- compound: "CN1CCOC(c2ccccc2)c2ccccc2C1 (configuration not stated)"
  unitAbbreviation: "%"
  cell viability: 96.7
- compound: "Cc1oc(-c2ccccc2)nc1CCOc1ccc(CC2SC(=O)NC2=O)c2sccc12 (configuration not stated)"
  unitAbbreviation: "%"
  cell viability: 114
- compound: "CC(NCCC(c1ccccc1)c1ccccc1)c1ccccc1 (configuration not stated)"
  unitAbbreviation: "%"
  cell viability: 103
- compound: "Nc1nc(=O)[nH]cc1F"
  unitAbbreviation: "%"
  cell viability: 99.9
- compound: "CCOC(=O)[C@H](CCc1ccccc1)N[C@@H](C)C(=O)N1Cc2ccccc2C[C@H]1C(=O)O"
  unitAbbreviation: "%"
  cell viability: 103
- compound: "FCc1ccc(OCCOc2ccc(Cl)cc2Cl)c(Cl)n1"
  unitAbbreviation: "%"
  cell viability: 101
- compound: "Oc1cccc(-c2nc(N3CCOCC3)c3oc4ncccc4c3n2)c1"
  unitAbbreviation: "%"
  cell viability: 81.9
- compound: "Clc1ccc(C(Cn2ccnc2)OCc2ccc(Sc3ccccc3)cc2)c(Cl)c1 (configuration not stated)"
  unitAbbreviation: "%"
  cell viability: 97
- compound: "NS(=O)(=O)NCCNc1nonc1/C(=N/O)Nc1ccc(F)c(Br)c1"
  unitAbbreviation: "%"
  cell viability: 93.7
- compound: "CCCCCCCCCCCCOCCOCCOCCOCCOCCOCCOCCOCCOCCO"
  unitAbbreviation: "%"
  cell viability: 99.6
- compound: "CC[n+]1c(-c2ccccc2)c2cc(N)ccc2c2ccc(N)cc21"
  unitAbbreviation: "%"
  cell viability: 93
- compound: "CCc1nc(C)ccc1O"
  unitAbbreviation: "%"
  cell viability: 104
- compound: "O=C(CN1CCNCC1)NC1CCCCC1"
  unitAbbreviation: "%"
  cell viability: 101
- compound: "Oc1cc2c(c(Cl)c1O)CCNCC2c1ccccc1 (configuration not stated)"
  unitAbbreviation: "%"
  cell viability: 97.7
- compound: "CC#C[C@]1(O)CC[C@H]2[C@@H]3CCC4=CC(=O)CCC4=C3[C@@H](c3ccc(N(C)C)cc3)C[C@@]21C"
  unitAbbreviation: "%"
  cell viability: 88.7
- compound: "CC(C)(O)C(Cl)(Cl)Cl"
  unitAbbreviation: "%"
  cell viability: 104
- compound: "O=C(O[C@H]1C[C@H]2CC[C@@H](C1)[N+]21CCCC1)C(O)(c1ccccc1)c1ccccc1"
  unitAbbreviation: "%"
  cell viability: 97.2
- compound: "O=C(N[C@H]1CN2CCC1CC2)c1ccc(Cl)cc1"
  unitAbbreviation: "%"
  cell viability: 99.6
- compound: "CCn1cc(C(=O)O)c(=O)c2cc(F)c(N3CCNCC3)nc21"
  unitAbbreviation: "%"
  cell viability: 106
- compound: "CNCC[C@H](Oc1cccc2ccccc12)c1cccs1"
  unitAbbreviation: "%"
  cell viability: 92.4
- compound: "C[S+](C)CC[C@H](N)C(=O)O"
  unitAbbreviation: "%"
  cell viability: 85.1
